Target: MBP-tagged Methanosarcina acetivorans YcaO (Methanosarcina acetivorans)
Experiment: fluorescence polarisation
MEASURE: Ki (nM)

[[record]]
binder = "RLGFFGFDLQD [wild-type MBP-tagged McrA peptide (M. acetivorans McrA 11-mer)]"
measure = "Ki"
value_observed = 700

